Every entry's value here was drawn from the supplement of paper PMC11061612.

Test system: HCC1954 (Breast Carcinoma)
Assay: Bliss excess, mean over the matrix (fraction); higher = more synergy
Where Bliss excess equals or exceeds 0.04, the correct label is Met; where it does not, the label is Not met.

Reported Bliss excess reaches at least 0.04 for NC1(C(=O)N[C@@H](CCO)c2ccc(Cl)cc2)CCN(c2ncnc3[nH]ccc23)CC1 [Capivasertib] + COc1nnc2ccc(N3CCC(c4ccc(OCCN5CCN(C)C(=O)[C@H]5C)cc4)CC3)nn12 [AZD5153] (first compound max 10 µM, 7x7, partner max 1 µM) ?
Met

Reported Bliss excess reaches at least 0.04 for COc1nnc2ccc(N3CCC(c4ccc(OCCN5CCN(C)C(=O)[C@H]5C)cc4)CC3)nn12 [AZD5153] + Cn1cnc2c(F)c(Nc3ccc(Br)cc3Cl)c(C(=O)NOCCO)cc21 [Selumetinib] (first compound max 1 µM, 7x7, partner max 10 µM) ?
Not met

Reported Bliss excess reaches at least 0.04 for Cn1cnc2c(F)c(Nc3ccc(Br)cc3Cl)c(C(=O)NOCCO)cc21 [Selumetinib] + C[C@@H]1COCCN1C2=NC(=NC(=C2)C3(CC3)[S@](=N)(=O)C)C4=C5C=CNC5=NC=C4 [AZD6738] (first compound max 10 µM, 7x7, partner max 10 µM) ?
Not met

Reported Bliss excess reaches at least 0.04 for CC1(C)CCC(CN2CCN(c3ccc(C(=O)NS(=O)(=O)c4ccc(NCC5CCOCC5)c([N+](=O)[O-])c4)c(Oc4cnc5[nH]ccc5c4)c3)CC2)=C(c2ccc(Cl)cc2)C1 [Venetoclax] + COc1cc(Nc2ncc3c(n2)-c2ccc(Cl)cc2C(c2c(F)cccc2OC)=NC3)ccc1C(=O)O [Alisertib] (first compound max 1 µM, 7x7, partner max 10 µM) ?
Not met

====

Answer each item with its documented Bliss excess.
System: OS-RC-2 (Kidney Carcinoma)
Assay: Bliss excess, mean over the matrix (fraction); higher = more synergy
// print number alone

NC1(C(=O)N[C@@H](CCO)c2ccc(Cl)cc2)CCN(c2ncnc3[nH]ccc23)CC1 [Capivasertib] + CC(=O)c1c(C)c2cnc(Nc3ccc(N4CCNCC4)cn3)nc2n(C2CCCC2)c1=O [Palbociclib] (first compound max 10 µM, 7x7, partner max 10 µM) has a reported Bliss excess of 0.0249

NC1(C(=O)N[C@@H](CCO)c2ccc(Cl)cc2)CCN(c2ncnc3[nH]ccc23)CC1 [Capivasertib] + CC(C)n1c(=O)n(C)c2cnc3cc(F)c(-c4ccc(OCCCN5CCCCC5)nc4)cc3c21 [AZD1390] (first compound max 10 µM, 7x7, partner max 0.3 µM) has a reported Bliss excess of -0.0779

COc1cccc(OCCCN)c1-c1cc(Nc2cnc(C#N)cn2)n[nH]1 [Prexasertib] + O=C(c1cc(Cc2n[nH]c(=O)c3ccccc23)ccc1F)N1CCN(C(=O)C2CC2)CC1 [Olaparib] (first compound max 1 µM, 7x7, partner max 10 µM) has a reported Bliss excess of -0.0181

====

System: COLO-824 (Breast Carcinoma)
Assay: combination Emax (second highest fraction inhibited in the dose matrix, 72 h); higher = more inhibition; extreme values may be limits of the assay
Property Label: combination Emax
// print number alone

CN(CCO)CC[C@H](CSc1ccccc1)Nc1ccc(S(=O)(=O)NC(=O)c2ccc(N3CCC([C@@H](O)c4ccccc4-c4ccc(Cl)cc4)CC3)cc2)cc1S(=O)(=O)C(F)(F)F [AZD4320] + CCN(CCO)CCCOc1ccc2c(Nc3cc(CC(=O)Nc4cccc(F)c4)[nH]n3)ncnc2c1 [AZD2811] (first compound max 1 µM, 7x7, partner max 1 µM) has a reported combination Emax of 1

Cn1cnc2c(F)c(Nc3ccc(Br)cc3Cl)c(C(=O)NOCCO)cc21 [Selumetinib] + C[C@@H]1COCCN1C2=NC(=NC(=C2)C3(CC3)[S@](=N)(=O)C)C4=C5C=CNC5=NC=C4 [AZD6738] (first compound max 10 µM, 7x7, partner max 10 µM) has a reported combination Emax of 0.718

C=CCn1c(=O)c2cnc(Nc3ccc(N4CCN(C)CC4)cc3)nc2n1-c1cccc(C(C)(C)O)n1 [AZD1775] + C[C@@H]1COCCN1C2=NC(=NC(=C2)C3(CC3)[S@](=N)(=O)C)C4=C5C=CNC5=NC=C4 [AZD6738] (first compound max 1 µM, partner max 10 µM) has a reported combination Emax of 0.851

CN(C)CCCOc1ccc(-c2ccc3ncc4c(c3c2)n(C2CCOCC2)c(=O)n4C)cn1 [AZD0156] + C[C@@H]1COCCN1C2=NC(=NC(=C2)C3(CC3)[S@](=N)(=O)C)C4=C5C=CNC5=NC=C4 [AZD6738] (first compound max 1 µM, 7x7, partner max 10 µM) has a reported combination Emax of 0.712
